I'd appreciate it if you could supply pUO2 (pH 7.4) = −log[UO2^2+]free values for the items below.
# Format: binding
# condition: [UO2^2+]tot = 10^−6 M, [L]tot = 10^−5 M, 25 °C, I = 0.1 M KCl
Give bare numbers.

Some compounds with known pUO2 (pH 7.4) = −log[UO2^2+]free results, for comparison:
compound | pUO2 (pH 7.4) = −log[UO2^2+]free
Oc1cccc2ccc(CNCCNCc3ccc4cccc(O)c4n3)nc12 | 19.80
O=C(O)c1cccc(CNCCNCc2cccc(C(=O)O)n2)n1 | 17.46
Oc1cccc2ccc(CNC3CCCCC3NCc3ccc4cccc(O)c4n3)nc12 (stereo not shown) | 19.98

Below: the item to evaluate.
stdin: Identify measured pUO2 (pH 7.4) = −log[UO2^2+]free associated with O=C(O)c1cccc(CNC2CCCCC2NCc2cccc(C(=O)O)n2)n1 (stereo not shown)
stdout: 17.72

Value source: paper PMC9382226
